system: CHO-K1; experiment: Cytotoxicity against chinese hamster CHO-K1 cells assessed as decrease in cell viability measured after 48 hrs by ATPlite assay; type: toxicity, cell-based, Cricetulus griseus; conditions: cho-k1, 48 h
Measured attribute: MTC (µM)
Expressed in µM, but write only the number.

// solved cases for MTC follow
Mol: COc1ccc(C(=O)Nc2ccc(N3CCN(c4cccc(C)c4)CC3)cc2C(=O)O)cc1
Endpoint value: 22

Mol: COc1ccccc1N1CCN(c2ccc(NC(=O)c3ccccc3Cl)c(C(=O)O)c2)CC1
Endpoint value: 36

Attention now turns to another entry.
What measured MTC goes with `COc1ccc(C(=O)Nc2ccc(N3CCN(c4cccc(Cl)c4)CC3)cc2C(=O)O)cc1` ?
20

====

test system: CHO-K1; experiment: Inhibition of spermidine uptake in chinese hamster CHO-K1 cells assessed as decrease in cell growth by measuring cellular ATP content measured after 48 hrs in presence of DFMO and spermidine by ATPlite assay; conditions: Cricetulus griseus, CHO-K1, 48 h
# maps each entry to its EC50
Your answer is read as µM, so omit the unit and give the number.

Mol: Cc1ccc(CC(=O)Nc2ccc(N3CCN(c4ccccc4Cl)CC3)cc2C(=O)O)cc1
Test system: CHO-K1
EC50 (µM): 32
--
Mol: COc1ccc(C(=O)Nc2ccc(N3CCN(c4cccc(Cl)c4)CC3)cc2C(=O)O)cc1
Test system: CHO-K1
EC50 (µM): 17
--
Mol: COc1ccc(C(=O)Nc2ccc(N3CCN(c4ccccc4Cl)CC3)cc2C(=O)O)cc1
Test system: CHO-K1
EC50 (µM): 27

What EC50 value was documented for this compound, `COc1ccc(CC(=O)Nc2ccc(N3CCN(c4cc(Cl)ccc4C)CC3)cc2C(=O)O)cc1` ?
25

Next: `COc1ccccc1N1CCN(c2ccc(NC(=O)c3ccccc3Cl)c(C(=O)O)c2)CC1`
26

====

tested on: CHO-K1; assay: Cytotoxicity against chinese hamster CHO-K1 cells assessed as decrease in cell viability measured after 48 hrs by ATPlite assay; type: toxicity, cell-based, Cricetulus griseus; settings: cho-k1, 48 h
Measured attribute: MTC

Known MTC results, listed for orientation:
Mol: COc1ccccc1N1CCN(c2ccc(NC(=O)c3ccccc3-c3cccs3)cc2C(=O)O)CC1
MTC: > 40 µM
//
Mol: COc1ccccc1C(=O)Nc1ccc(N2CCN(Cc3ccccc3)CC2)cc1C(=O)O
MTC: > 40 µM
//
Mol: Cc1cccc(N2CCN(c3ccc(NC(=O)c4cccc(Cl)c4)c(C(=O)O)c3)CC2)c1C
MTC: 10 µM
//
Mol: COc1ccc(C(=O)Nc2ccc(N3CCN(c4cc(Cl)ccc4C)CC3)c(C(=O)O)c2)cc1
MTC: 14 µM

Could you share which MTC value was measured for `COc1ccc(C(=O)Nc2ccc(N3CCN(c4ccccc4Cl)CC3)cc2C(=O)O)cc1` ?
28 µM

====

test system: L3.6pl; test: Cytotoxicity against human L3.6pl cells assessed as cell viability measured after 72 hrs by ATPlite assay; assay type: toxicity, cell-based
Measured attribute: log10(MTC) (log10 of the value in µM)
Note: values are log10 of MTC expressed in µM.

Answered examples (10):
Compound: CCOc1ccccc1N1CCN(c2ccc(NC(=O)c3ccc(OC)cc3)c(C(=O)O)c2)CC1
log10(MTC): 1.00
--
Compound: O=C(Nc1ccc(N2CCN(c3ccccn3)CC2)cc1C(=O)O)c1ccco1
log10(MTC): 1.08
--
Compound: Cc1ccccc1CN1CCN(c2ccc(NC(=O)C(C)(C)C)cc2)CC1
log10(MTC): 1.00
--
Compound: COc1ccccc1C(=O)Nc1ccc(N2CCC(c3ccccc3)CC2)cc1C(=O)O
log10(MTC): 0.95
--
Compound: COc1ccccc1C(=O)Nc1ccc(N2CCN(c3cc(Cl)ccc3C)CC2)cc1C(=O)O
log10(MTC): 0.85
--
Compound: COc1ccccc1C(=O)Nc1ccc(N2CCN(c3ccccn3)CC2)cc1C(=O)O
log10(MTC): 0.30
--
Compound: COc1ccccc1C(=O)Nc1ccc(N2CCN(Cc3ccccc3)CC2)cc1C(=O)O
log10(MTC): 1.00
--
Compound: COc1ccc(C(=O)Nc2ccc(N3CCC(c4cccc(C)c4)C3)cc2C(=O)O)cc1 (stereo not given)
log10(MTC): 1.40
--
Compound: COc1ccccc1C(=O)Nc1ccc(N2CCN(Cc3ccccn3)CC2)cc1C(=O)O
log10(MTC): 1.00
--
Compound: COc1ccccc1C(=O)Nc1ccc(N2CCN(C(=O)c3ccccn3)CC2)cc1C(=O)O
log10(MTC): 1.00

# value lookup — system L3.6pl, readout log10(MTC), item `COc1ccc(C(=O)Nc2ccc(N3CCN(c4cc(Cl)ccc4C)CC3)cc2C(=O)O)c(OC)c1`
1.60

Next record, please: `COc1ccccc1C(=O)Nc1ccc(N2CCN(c3ccccn3)CC2)cc1`
1.00

Next up: `COc1ccccc1C(=O)Nc1ccc(N2CCN(CCCc3ccccc3)CC2)cc1C(=O)O`
1.00

For `COc1ccc(C(=O)Nc2ccc(N3CCN(c4ccccc4Cl)CC3)cc2C(=O)O)cc1` then?
1.95

Same lookup for `COc1ccc(C(=O)Nc2ccc(N3CCCN(c4ncccn4)CC3)cc2C(=O)O)cc1` , please.
1.40

Continue with `COc1ccccc1C(=O)Nc1ccc(N2CCC(Oc3ccccc3)CC2)cc1C(=O)O`
1.00

And then `COc1ccc(C(=O)Nc2ccc(N3CCN(c4ccccc4OC)CC3)cc2C(=O)O)cc1` , what is it?
0.78

Try `COc1ccccc1C(=O)Nc1ccc(CN2CCN(c3ccccn3)CC2)cc1C(=O)O` next.
1.00

Try `COc1ccc(C(=O)Nc2ccc(N3CCN(c4cc(Cl)ccc4C)CC3)cc2C(=O)O)cc1` next.
0.90

Cool, now `COc1ccccc1C(=O)Nc1ccc(N2CCN(c3cccc(C)c3C)CC2)cc1C(=O)O`
0.90
